Data origin, for the record: the Deep4Chem optical property database

Assay: solvent given as SMILES
Conditions: in CN(C)C=O
absorption maximum of 500 nm or higher: YES. Under 500 nm: NO.

Answered cases to consult:
STRUCTURE_AS_SMILES: CCC1(CC)c2cc(B(c3c(C)cc(C)cc3C)c3c(C)cc(C)cc3C)ccc2-c2ccc(N(c3ccccc3)c3ccc4c(c3)C(CC)(CC)c3cc(B(c5c(C)cc(C)cc5C)c5c(C)cc(C)cc5C)ccc3-4)cc21
ANSWER_LABEL: NO
//
STRUCTURE_AS_SMILES: c1ccc(-n2c(-c3ccc(-c4ccc(-c5ccc(-c6nc7c8ccccc8c8ccccc8c7n6-c6ccccc6)cc5)cc4)cc3)nc3ccccc32)cc1
ANSWER_LABEL: NO
//
STRUCTURE_AS_SMILES: Cc1cc(O)c(C(C)C)cc1/N=C/c1ccc(O)cc1
ANSWER_LABEL: NO
//
STRUCTURE_AS_SMILES: N#C/C(=N/Nc1ccc(C#N)cc1)c1nc(-c2ccccc2)cs1
ANSWER_LABEL: NO

Q) API: above_or_equal(metric=absorption maximum, cutoff=500 nm) for item CCC1=C(C)C2=C(c3cc(C(=O)Cl)cc(C(=O)Cl)c3)c3c(C)c(CC)c(C)n3[B-](F)(F)[N+]2=C1C
A) YES

Q) Does Fc1cc(-c2ccc(-c3nc4cc(Br)ccc4[nH]3)cc2)ccc1-c1ccc(-c2nc3cc(Br)ccc3[nH]2)cc1 have a reported absorption maximum of at least 500 nm?
A) NO

Q) Could you tell me if the measured absorption maximum of CCN(CC)c1ccc(/N=N/c2cc3c(=O)[nH][nH]c(=O)c3cc2[N+](=O)[O-])c(NC(C)=O)c1 reaches 500 nm or more?
A) YES

* * *

Experiment: solvent given as SMILES
Conditions: in CC#N
Outcome: 1.0 for absorption maximum of at least 400 nm; 0.0 for anything lower.

Consider the worked cases shown below.
MOLECULE: CCOC(=O)COc1ccc(C(c2c(C)[nH]c3ccccc23)c2c(C)[nH]c3ccccc23)cc1OC
ANSWER_LABEL: 0.0
--
MOLECULE: CC(C)(C)c1ccc2c(c1)c1cc(C(C)(C)C)ccc1n2-c1ccc2oc3nc4oc5ccc(C(F)(F)F)cc5c4cc3c2c1
ANSWER_LABEL: 0.0
--
MOLECULE: CCCOc1ccc(/C=C/C=C/C=C/c2ccc([N+](=O)[O-])cc2)cc1
ANSWER_LABEL: 1.0
--
MOLECULE: c1ccc2cc3cc(-c4cc(-c5nccs5)nc(-c5nccs5)c4)ccc3cc2c1
ANSWER_LABEL: 0.0
--
MOLECULE: CCOC(=O)CN(CC(=O)OCC)c1ccc(-c2cc(-c3ccncc3)nc(-c3ccncc3)c2)cc1
ANSWER_LABEL: 0.0

Q) Could you verify whether the entry CCN(CC)c1ccc2c(C)cc(=O)oc2c1 shows absorption maximum of no less than 400 nm?
A) 0.0

Q) Reported absorption maximum at or above 400 nm? CC(C)(C)c1ccc2c3c(c4ccc(C(C)(C)C)cc4c2c1)=[N+]1C(=C(c2ccccc2)c2c(Br)c4c5ccc(C(C)(C)C)cc5c5cc(C(C)(C)C)ccc5c4n2[B-]1(F)F)C=3Br
A) 1.0

Q) Given the entry COc1ccc(-n2nc(C#N)c(N3CCCCCC3)n2)cc1 , answer whether its absorption maximum meets or surpasses 400 nm.
A) 0.0
